- Assay details: Solubility study of naltrexone and methylphenidate in common solvents and household items (visual examination)
- Type: physicochemical
- Experimental setup: turpentine, organic solvent or mixture, thermodynamic from solid; read-out: Solubility
Structures can show the parent of a compound that is named as a salt.
Experimental endpoint: solubility

>  <Compound>
COC(=O)C(c1ccccc1)C1CCCCN1 (centres unmarked) [Methylphenidate HCl]

>  <solubility>
< 100 µg/mL

$$$$

Kindly review the next compound as well.
Query (compound): O=C1CC[C@@]2(O)[C@H]3Cc4ccc(O)c5c4[C@@]2(CCN3CC2CC2)[C@H]1O5 [Naltrexone HCl] ; field requested: solubility < 100 µg/mL

----------
- Assay details: Solubility study of naltrexone and methylphenidate in common solvents and household items (visual examination)
- Type: physicochemical
- Experimental setup: DMSO, organic solvent or mixture, thermodynamic from solid; read-out: Solubility
Where a name gives a salt, the structure may show the parent alone.
Consider the following compounds and their measured solubility readings.

Any idea what solubility was measured for COC(=O)C(c1ccccc1)C1CCCCN1 (centres unmarked) [Methylphenidate HCl] ? > 1000 µg/mL

solubility for O=C1CC[C@@]2(O)[C@H]3Cc4ccc(O)c5c4[C@@]2(CCN3CC2CC2)[C@H]1O5 [Naltrexone HCl] ? > 1000 µg/mL

----------
- Assay details: Solubility study of naltrexone and methylphenidate in common solvents and household items (visual examination)
- Assay type: physicochemical
- Experimental setup: aqueous buffer, thermodynamic from solid; 0.1M Sodium Hydroxide; read-out: Solubility
- Experimental: The solubility of naltrexone and methylphenidate was evaluated in various commonly available solvents and household items, including water, cola soft drinks, ethanol, vinegar, nail polish remover, toluene, turpentine, and baking soda solution (see Table 1). The solubility results were determined by visual examination of each solution after warming and several hours of mixing. The solubility results are presented below in Table 1.
Structures can show the parent of a compound that is named as a salt.
Let's look at some compounds and their measured solubility.

Returns the measured solubility for the input compound. Input: O=C1CC[C@@]2(O)[C@H]3Cc4ccc(O)c5c4[C@@]2(CCN3CC2CC2)[C@H]1O5 [Naltrexone HCl] > 1000 µg/mL

Fill blank: measured solubility of the compound COC(=O)C(c1ccccc1)C1CCCCN1 (centres unmarked) [Methylphenidate HCl] is ____. > 1000 µg/mL

----------
- Assay details: Solubility study of naltrexone and methylphenidate in common solvents and household items (visual examination)
- Assay type: physicochemical
- Experimental setup: 50:50 acetone:water, aqueous with cosolvent or surfactant or cyclodextrin, thermodynamic from solid; 50:50 Acetone:H2O; read-out: Solubility
Where a name gives a salt, the structure may show the parent alone.
# solubility per entry

>  <Compound>
O=C1CC[C@@]2(O)[C@H]3Cc4ccc(O)c5c4[C@@]2(CCN3CC2CC2)[C@H]1O5 [Naltrexone HCl]

>  <solubility>
> 1000 µg/mL

$$$$

For the next question, use this compound.
What value of solubility has been reported for the following compound? COC(=O)C(c1ccccc1)C1CCCCN1 (centres unmarked) [Methylphenidate HCl] > 1000 µg/mL

----------
Measured solubility, listed per entry.
- Assay details: Solubility study of naltrexone and methylphenidate in common solvents and household items (visual examination)
- Format: physicochemical
- Experimental setup: simulated gastric fluid, thermodynamic from solid; 0.1M Hydrochloric Acid; read-out: Solubility
Counter-ions that a name gives are not always drawn.

>  <Compound>
COC(=O)C(c1ccccc1)C1CCCCN1 (centres unmarked) [Methylphenidate HCl]

>  <solubility>
> 1000 µg/mL

$$$$

Would you mind telling me what solubility value was observed for O=C1CC[C@@]2(O)[C@H]3Cc4ccc(O)c5c4[C@@]2(CCN3CC2CC2)[C@H]1O5 [Naltrexone HCl] ? > 1000 µg/mL

----------
- Assay details: Solubility study of naltrexone and methylphenidate in common solvents and household items (visual examination)
- Assay type: physicochemical
- Experimental setup: isopropyl alcohol, organic solvent or mixture, thermodynamic from solid; read-out: Solubility
Where a name gives a salt, the structure may show the parent alone.
Reported solubility values are given for each entry in this list.

>  <Molecule>
O=C1CC[C@@]2(O)[C@H]3Cc4ccc(O)c5c4[C@@]2(CCN3CC2CC2)[C@H]1O5 [Naltrexone HCl]

>  <Measured result>
< 100 µg/mL

$$$$

Looking for the measured solubility of COC(=O)C(c1ccccc1)C1CCCCN1 (centres unmarked) [Methylphenidate HCl] , can you help? > 1000 µg/mL

----------
- Assay details: Solubility study of naltrexone and methylphenidate in common solvents and household items (visual examination)
- Type: physicochemical
- Experimental setup: mineral spirits, organic solvent or mixture, thermodynamic from solid; read-out: Solubility
Where a name gives a salt, the structure may show the parent alone.
Experimental endpoint: solubility

>  <Compound>
COC(=O)C(c1ccccc1)C1CCCCN1 (centres unmarked) [Methylphenidate HCl]

>  <solubility>
< 100 µg/mL

$$$$

// moving on: another record for solubility
# get_value(readout='solubility', item= O=C1CC[C@@]2(O)[C@H]3Cc4ccc(O)c5c4[C@@]2(CCN3CC2CC2)[C@H]1O5 [Naltrexone HCl] ) < 100 µg/mL

----------
# key: entry, value: solubility
- Assay details: Solubility study of naltrexone and methylphenidate in common solvents and household items (visual examination)
- Format: physicochemical
- Experimental setup: methanol, organic solvent or mixture, thermodynamic from solid; read-out: Solubility
Where a name gives a salt, the structure may show the parent alone.

>  <Compound>
O=C1CC[C@@]2(O)[C@H]3Cc4ccc(O)c5c4[C@@]2(CCN3CC2CC2)[C@H]1O5 [Naltrexone HCl]

>  <solubility>
> 1000 µg/mL

$$$$

For the next question, use this compound.
Suppose we examine the compound COC(=O)C(c1ccccc1)C1CCCCN1 (centres unmarked) [Methylphenidate HCl] ; what solubility value has been reported? > 1000 µg/mL

----------
- Assay details: Solubility study of naltrexone and methylphenidate in common solvents and household items (visual examination)
- Type: physicochemical
- Experimental setup: toluene, organic solvent or mixture, thermodynamic from solid; read-out: Solubility
Structures can show the parent of a compound that is named as a salt.
Experimental endpoint: solubility

>  <Molecule>
COC(=O)C(c1ccccc1)C1CCCCN1 (centres unmarked) [Methylphenidate HCl]

>  <solubility>
< 100 µg/mL

$$$$

Look at this molecule and give its reported solubility. O=C1CC[C@@]2(O)[C@H]3Cc4ccc(O)c5c4[C@@]2(CCN3CC2CC2)[C@H]1O5 [Naltrexone HCl] < 100 µg/mL

----------
solubility values by entry
- Assay details: Solubility study of naltrexone and methylphenidate in common solvents and household items (visual examination)
- Assay type: physicochemical
- Experimental setup: acetone, organic solvent or mixture, thermodynamic from solid; read-out: Solubility
Counter-ions that a name gives are not always drawn.

>  <Molecule>
O=C1CC[C@@]2(O)[C@H]3Cc4ccc(O)c5c4[C@@]2(CCN3CC2CC2)[C@H]1O5 [Naltrexone HCl]

>  <Measured result>
< 100 µg/mL

$$$$

Now examine the next entry.
Entry under review: COC(=O)C(c1ccccc1)C1CCCCN1 (centres unmarked) [Methylphenidate HCl] . Reported solubility? > 1000 µg/mL

----------
- Assay details: Solubility study of naltrexone and methylphenidate in common solvents and household items (visual examination)
- Type: physicochemical
- Experimental setup: canola oil, oil or lipid, thermodynamic from solid; read-out: Solubility
Counter-ions that a name gives are not always drawn.
Examples of molecules with documented solubility follow.

>  <Molecule>
O=C1CC[C@@]2(O)[C@H]3Cc4ccc(O)c5c4[C@@]2(CCN3CC2CC2)[C@H]1O5 [Naltrexone HCl]

>  <Measured result>
< 100 µg/mL

$$$$

Now consider the entry below.
Which value of solubility has been reported for COC(=O)C(c1ccccc1)C1CCCCN1 (centres unmarked) [Methylphenidate HCl] in the records? < 100 µg/mL

----------
- Assay details: Solubility study of naltrexone and methylphenidate in common solvents and household items (visual examination)
- Type: physicochemical
- Experimental setup: acetonitrile, organic solvent or mixture, thermodynamic from solid; read-out: Solubility
Where a name gives a salt, the structure may show the parent alone.
Experimental endpoint: solubility

>  <Molecule>
COC(=O)C(c1ccccc1)C1CCCCN1 (centres unmarked) [Methylphenidate HCl]

>  <Experimental endpoint>
solubility

>  <Measured result>
> 1000 µg/mL

$$$$

Look up solubility: O=C1CC[C@@]2(O)[C@H]3Cc4ccc(O)c5c4[C@@]2(CCN3CC2CC2)[C@H]1O5 [Naltrexone HCl] 100 to 500 µg/mL

----------
- Assay details: Solubility study of naltrexone and methylphenidate in common solvents and household items (visual examination)
- Type: physicochemical
- Experimental setup: hexanes, organic solvent or mixture, thermodynamic from solid; read-out: Solubility
Where a name gives a salt, the structure may show the parent alone.
Measured solubility by item

>  <Compound>
COC(=O)C(c1ccccc1)C1CCCCN1 (centres unmarked) [Methylphenidate HCl]

>  <solubility>
100 to 500 µg/mL

$$$$

Endpoint output: solubility of O=C1CC[C@@]2(O)[C@H]3Cc4ccc(O)c5c4[C@@]2(CCN3CC2CC2)[C@H]1O5 [Naltrexone HCl] . Value? < 100 µg/mL

----------
- Assay details: Solubility study of naltrexone and methylphenidate in common solvents and household items (visual examination)
- Type: physicochemical
- Experimental setup: naphtha, organic solvent or mixture, thermodynamic from solid; read-out: Solubility
- Experimental: The solubility of naltrexone and methylphenidate was evaluated in various commonly available solvents and household items, including water, cola soft drinks, ethanol, vinegar, nail polish remover, toluene, turpentine, and baking soda solution (see Table 1). The solubility results were determined by visual examination of each solution after warming and several hours of mixing. The solubility results are presented below in Table 1.
Where a name gives a salt, the structure may show the parent alone.
Experimental endpoint: solubility

>  <Compound>
O=C1CC[C@@]2(O)[C@H]3Cc4ccc(O)c5c4[C@@]2(CCN3CC2CC2)[C@H]1O5 [Naltrexone HCl]

>  <solubility>
< 100 µg/mL

$$$$

Let's switch to this compound now.
Look at this compound and give its reported solubility. COC(=O)C(c1ccccc1)C1CCCCN1 (centres unmarked) [Methylphenidate HCl] < 100 µg/mL
